Assay: physchem
Settings: organic solvent or mixture
MEASURED ENDPOINT: solubility

Query: Return the recorded solubility value; entry: CCC(C)OC(=O)NC(N)=NC(=O)Cc1c(Cl)cccc1Cl.Cl (stereo not shown) [Compound 7]
Result: > 10000 µg/mL

* * *

Experiment: Microdose comparative bioavailability study in healthy adult subjects
Type: in vivo
Conditions: both sexes, plasma; healthy human volunteers, oral, 100 µg free base; read-out: Cmax, analyte Compound 3
Experimental: Blood samples were withdrawn pre-dose and at 0.5, 1, 2, 3, 4, 5, 6, 8, 12, 16, 24, 32, and 48 hours post dose and submitted to analysis for the parent drug and prodrug using a validated LC-MS-MS assay. The following pharmacokinetic parameters derived from the plasma analytical data were determined;
MEASURED ENDPOINT: Cmax

Query: Name the recorded Cmax of the compound listed here: `CCOC(=O)NC(N)=NC(=O)Cc1c(Cl)cccc1Cl.Cl`
Result: 0.089 ng/mL

All figures here come from patent US20120065152A1.
